molecular target: furin (Homo sapiens)
Sequence (P09958 108-794): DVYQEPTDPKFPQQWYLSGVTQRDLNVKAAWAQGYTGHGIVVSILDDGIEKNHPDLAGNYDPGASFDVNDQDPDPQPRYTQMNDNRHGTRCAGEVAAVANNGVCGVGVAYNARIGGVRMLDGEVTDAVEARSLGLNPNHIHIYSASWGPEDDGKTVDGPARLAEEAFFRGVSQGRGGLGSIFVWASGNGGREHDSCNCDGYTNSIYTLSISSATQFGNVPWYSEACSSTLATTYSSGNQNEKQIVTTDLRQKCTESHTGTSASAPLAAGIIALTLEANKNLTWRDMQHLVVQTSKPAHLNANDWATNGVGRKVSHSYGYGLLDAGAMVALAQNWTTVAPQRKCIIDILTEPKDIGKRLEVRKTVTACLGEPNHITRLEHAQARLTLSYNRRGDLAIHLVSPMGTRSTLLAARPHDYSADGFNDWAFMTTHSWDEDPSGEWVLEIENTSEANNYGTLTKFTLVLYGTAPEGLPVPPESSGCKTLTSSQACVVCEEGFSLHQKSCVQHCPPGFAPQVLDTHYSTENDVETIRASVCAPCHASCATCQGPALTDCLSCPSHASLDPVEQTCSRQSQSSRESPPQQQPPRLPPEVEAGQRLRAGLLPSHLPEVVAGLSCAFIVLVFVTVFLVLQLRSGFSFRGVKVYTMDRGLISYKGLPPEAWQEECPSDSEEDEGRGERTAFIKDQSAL
quantity_name: pKi
Give bare numbers, as −log10 of the molar value.

Reported pKi ( N=C(N)N/N=C/c1ccccc1OCc1ccc(Cl)cc1 [Compound 2] ) = 4.60
